- Tested On: AMPKα2β1γ1 (AMP-activated protein kinase) (Homo sapiens, UniProt P54619+P54646+Q9Y478)
- Sequence (P54646 whole entry): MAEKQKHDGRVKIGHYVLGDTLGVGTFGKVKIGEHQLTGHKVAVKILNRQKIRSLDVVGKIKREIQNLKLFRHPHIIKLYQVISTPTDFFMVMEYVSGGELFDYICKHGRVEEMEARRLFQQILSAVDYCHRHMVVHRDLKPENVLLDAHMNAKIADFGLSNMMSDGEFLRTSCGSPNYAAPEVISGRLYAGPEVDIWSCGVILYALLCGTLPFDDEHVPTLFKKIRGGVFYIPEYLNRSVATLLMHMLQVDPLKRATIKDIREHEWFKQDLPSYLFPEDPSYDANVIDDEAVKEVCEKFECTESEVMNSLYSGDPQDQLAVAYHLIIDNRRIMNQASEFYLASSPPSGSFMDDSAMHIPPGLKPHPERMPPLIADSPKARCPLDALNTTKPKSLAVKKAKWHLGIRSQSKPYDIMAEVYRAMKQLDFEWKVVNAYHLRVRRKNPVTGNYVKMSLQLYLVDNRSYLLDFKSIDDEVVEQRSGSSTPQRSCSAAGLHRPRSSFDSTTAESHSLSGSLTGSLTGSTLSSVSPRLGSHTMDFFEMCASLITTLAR
- Sequence (Q9Y478 2-270 partner): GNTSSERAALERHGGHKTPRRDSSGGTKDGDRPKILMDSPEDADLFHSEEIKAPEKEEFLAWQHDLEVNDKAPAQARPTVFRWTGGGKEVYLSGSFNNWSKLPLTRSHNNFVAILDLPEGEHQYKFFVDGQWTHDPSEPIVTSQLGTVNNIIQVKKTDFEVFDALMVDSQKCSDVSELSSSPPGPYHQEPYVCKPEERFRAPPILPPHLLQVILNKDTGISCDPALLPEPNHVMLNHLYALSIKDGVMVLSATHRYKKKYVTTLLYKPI
- Sequence (P54619 whole entry partner): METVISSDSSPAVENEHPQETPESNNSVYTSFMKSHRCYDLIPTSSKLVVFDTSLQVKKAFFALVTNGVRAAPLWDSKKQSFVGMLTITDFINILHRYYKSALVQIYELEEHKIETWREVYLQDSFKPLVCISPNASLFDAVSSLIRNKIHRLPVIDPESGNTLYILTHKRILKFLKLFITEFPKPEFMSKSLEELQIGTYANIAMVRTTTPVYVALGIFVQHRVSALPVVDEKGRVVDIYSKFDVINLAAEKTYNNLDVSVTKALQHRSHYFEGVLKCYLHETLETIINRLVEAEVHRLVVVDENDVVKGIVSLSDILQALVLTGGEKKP
- Experiment Summary: SPR
Metric Name: Kd (µM)
Give the value, in units of µM, as a plain number.

Inquiry: # input molecule: OC[C@H]1O[C@@H](Oc2c(O)cc(O)cc2/C=C/c2ccc(O)cc2)[C@H](O)[C@@H](O)[C@@H]1O ; wanted: its Kd
Reply text: 4.67

###

- Tested On: AMPKα1β1γ1 (AMP-activated protein kinase) (Homo sapiens)
- Sequence (Q13131 whole entry, one chain of several): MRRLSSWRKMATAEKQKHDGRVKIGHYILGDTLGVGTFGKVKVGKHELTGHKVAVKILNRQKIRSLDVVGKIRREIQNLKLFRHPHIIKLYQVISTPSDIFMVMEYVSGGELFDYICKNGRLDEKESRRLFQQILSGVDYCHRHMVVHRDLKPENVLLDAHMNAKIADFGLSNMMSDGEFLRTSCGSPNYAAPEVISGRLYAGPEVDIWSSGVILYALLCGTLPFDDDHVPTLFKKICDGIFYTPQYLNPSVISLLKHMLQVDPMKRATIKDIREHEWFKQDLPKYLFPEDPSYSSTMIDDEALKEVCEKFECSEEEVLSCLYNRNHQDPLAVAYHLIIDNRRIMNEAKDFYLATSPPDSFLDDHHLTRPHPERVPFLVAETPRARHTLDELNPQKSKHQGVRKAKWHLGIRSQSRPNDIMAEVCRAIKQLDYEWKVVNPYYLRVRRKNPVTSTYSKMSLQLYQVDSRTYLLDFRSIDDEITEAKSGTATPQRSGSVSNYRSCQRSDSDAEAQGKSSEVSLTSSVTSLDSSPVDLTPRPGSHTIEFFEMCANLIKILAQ
- Experiment Summary: SPR
Metric Name: Kd (µM)
Give the value, in units of µM, as a plain number.

Inquiry: # input compound: OC[C@H]1O[C@@H](Oc2c(O)cc(O)cc2/C=C/c2ccc(O)cc2)[C@H](O)[C@@H](O)[C@@H]1O ; wanted: its Kd
Reply text: 3.77

Each recorded value in this set is attributed to paper PMC11976424.
